Tested on: M. morganii GN5407
Assay: agar plate dilution method, MIC against M. morganii GN5407
Type: cell-based
Details: Morganella morganii; M. morganii GN5407 (lactamase-producing strain); 10^6 CFU/ml, 37° C., 16 hours; read-out: Minimum Inhibitory Concentration (MIC)
REPORTED_PROPERTY: MIC (mg/L)
Response body: numeric value in mg/L, unit text excluded.

{"COMPOUND": "C=C(O/N=C(\\C(=O)NC1C(=O)N2C(C(=O)[O-])=C(CSc3cc[n+](CC(=O)O)cc3)CSC12)c1csc(N)n1)C(=O)O (stereo not drawn)", "MIC (mg/L)": 0.0125}
{"COMPOUND": "Nc1nc(C(=NOCc2ccc(O)c(O)c2)C(=O)NC2C(=O)N3C(C(=O)[O-])=C(CSc4cc[n+](CC(=O)O)cc4)CSC23)cs1 (stereo not drawn)", "MIC (mg/L)": 0.1}
{"COMPOUND": "CCON=C(C(=O)NC1C(=O)N2C(C(=O)[O-])=C(CSc3cc[n+](CC(=O)O)cc3)CSC12)c1csc(N)n1 (stereo not drawn) [Reference Example A, reference compound]", "MIC (mg/L)": 0.05}
{"COMPOUND": "CC(=O)Oc1ccc(C(O/N=C(\\C(=O)NC2C(=O)N3C(C(=O)[O-])=C(CSc4cc[n+](CC(=O)O)cc4)CSC23)c2csc(N)n2)C(=O)O)cc1OC(C)=O (stereo not drawn)", "MIC (mg/L)": 0.2}
{"COMPOUND": "Nc1nc(/C(=N/OC(C(=O)O)c2ccccc2)C(=O)NC2C(=O)N3C(C(=O)[O-])=C(CSc4cc[n+](CC(=O)O)cc4)CSC23)cs1 (stereo not drawn)", "MIC (mg/L)": 0.78}

Field: next compound
Challenge: Provide MIC value for the following compound: CO/N=C(\C(=O)N[C@@H]1C(=O)N2C(C(=O)O)=C(COC(C)=O)CS[C@H]12)c1csc(N)n1 [Cefotaxime, cefotaxime, reference compound]
Response given: 0.1

* * *

System: E. coli GN5482
Test: agar plate dilution method, MIC against E. coli GN5482
Type: cell-based
Conditions: Escherichia coli; E. coli GN5482 (lactamase-producing strain); 10^6 CFU/ml, 37° C., 16 hours; read-out: Minimum Inhibitory Concentration (MIC)
Listing of recorded MIC by entry.
Express the reported value numerically, then name its unit.

{"MOLECULE": "Nc1nc(/C(=N/Oc2ccccc2)C(=O)NC2C(=O)N3C(C(=O)[O-])=C(CSc4cc[n+](CC(=O)O)cc4)CSC23)cs1 (stereo not drawn) [Example 7]", "MIC": "1.56 µg/mL"}
{"MOLECULE": "Nc1nc(C(=NOCc2ccc(O)c(O)c2)C(=O)NC2C(=O)N3C(C(=O)[O-])=C(CSc4cc[n+](CC(=O)O)cc4)CSC23)cs1 (stereo not drawn) [Example 4]", "MIC": "0.39 µg/mL"}
{"MOLECULE": "Nc1nc(/C(=N/OC(C(=O)O)c2ccccc2)C(=O)NC2C(=O)N3C(C(=O)[O-])=C(CSc4cc[n+](CC(=O)O)cc4)CSC23)cs1 (stereo not drawn) [Example 3]", "MIC": "0.78 µg/mL"}
{"MOLECULE": "Nc1nc(/C(=N/OCc2ccccc2)C(=O)NC2C(=O)N3C(C(=O)[O-])=C(CSc4cc[n+](CC(=O)O)cc4)CSC23)cs1 (stereo not drawn) [Example 2]", "MIC": "0.78 µg/mL"}
{"MOLECULE": "C=C(O/N=C(\\C(=O)NC1C(=O)N2C(C(=O)[O-])=C(CSc3cc[n+](CC(=O)O)cc3)CSC12)c1csc(N)n1)C(=O)O (stereo not drawn) [Example 1]", "MIC": "0.2 µg/mL"}
{"MOLECULE": "CO/N=C(\\C(=O)N[C@@H]1C(=O)N2C(C(=O)O)=C(COC(C)=O)CS[C@H]12)c1csc(N)n1 [Cefotaxime, cefotaxime, reference compound]", "MIC": "0.39 µg/mL"}
{"MOLECULE": "CC(=O)Oc1ccc(C(O/N=C(\\C(=O)NC2C(=O)N3C(C(=O)[O-])=C(CSc4cc[n+](CC(=O)O)cc4)CSC23)c2csc(N)n2)C(=O)O)cc1OC(C)=O (stereo not drawn) [Example 6]", "MIC": "0.39 µg/mL"}
{"MOLECULE": "CCON=C(C(=O)NC1C(=O)N2C(C(=O)[O-])=C(CSc3cc[n+](CC(=O)O)cc3)CSC12)c1csc(N)n1 (stereo not drawn) [Reference Example A, reference compound]", "MIC": "0.2 µg/mL"}

Challenge: Provide MIC value for the following molecule: Nc1nc(C(=NOC(C(=O)O)c2ccc(O)c(O)c2)C(=O)NC2C(=O)N3C(C(=O)[O-])=C(CSc4cc[n+](CC(=O)O)cc4)CSC23)cs1 (stereo not drawn) [Example 5]
Response given: 0.2 µg/mL

* * *

Test system: K. oxytoca GN10650
Assay: agar plate dilution method, MIC against K. oxytoca GN10650
Type: cell-based
Details: Klebsiella oxytoca; K. oxytoca GN10650 (lactamase-producing strain); 10^6 CFU/ml, 37° C., 16 hours; read-out: Minimum Inhibitory Concentration (MIC)
REPORTED_PROPERTY: MIC (µg/mL)
Response body: numeric value in µg/mL, unit text excluded.

{"MOLECULE": "Nc1nc(/C(=N/Oc2ccccc2)C(=O)NC2C(=O)N3C(C(=O)[O-])=C(CSc4cc[n+](CC(=O)O)cc4)CSC23)cs1 (stereo not shown) [Example 7]", "REPORTED_PROPERTY": "MIC", "MEAS_VALUE": 25}
{"MOLECULE": "CCON=C(C(=O)NC1C(=O)N2C(C(=O)[O-])=C(CSc3cc[n+](CC(=O)O)cc3)CSC12)c1csc(N)n1 (stereo not shown) [Reference Example A, reference compound]", "REPORTED_PROPERTY": "MIC", "MEAS_VALUE": 3.12}
{"MOLECULE": "Nc1nc(C(=NOC(C(=O)O)c2ccc(O)c(O)c2)C(=O)NC2C(=O)N3C(C(=O)[O-])=C(CSc4cc[n+](CC(=O)O)cc4)CSC23)cs1 (stereo not shown) [Example 5]", "REPORTED_PROPERTY": "MIC", "MEAS_VALUE": 0.05}

Field: next molecule
Challenge: Provide MIC value for the following molecule: CO/N=C(\C(=O)N[C@@H]1C(=O)N2C(C(=O)O)=C(COC(C)=O)CS[C@H]12)c1csc(N)n1 [Cefotaxime, cefotaxime, reference compound]
Response given: 0.39

* * *

Listing of recorded log10 MIC by entry.
System: E. coli CSH2 (RK1)
In our notation, the value equals log10 of MIC in µg/mL.

{"COMPOUND": "CC(C)(O/N=C(\\C(=O)N[C@@H]1C(=O)N2C(C(=O)[O-])=C(C[n+]3ccccc3)CS[C@H]12)c1csc(N)n1)C(=O)O [Ceftazidime, ceftazidime, reference compound]", "REPORTED_PROPERTY": "log10 MIC", "MEAS_VALUE": -1.00}
{"COMPOUND": "Nc1nc(/C(=N/OCc2ccccc2)C(=O)NC2C(=O)N3C(C(=O)[O-])=C(CSc4cc[n+](CC(=O)O)cc4)CSC23)cs1 (stereo not shown)", "REPORTED_PROPERTY": "log10 MIC", "MEAS_VALUE": -0.70}
{"COMPOUND": "Nc1nc(C(=NOC(C(=O)O)c2ccc(O)c(O)c2)C(=O)NC2C(=O)N3C(C(=O)[O-])=C(CSc4cc[n+](CC(=O)O)cc4)CSC23)cs1 (stereo not shown)", "REPORTED_PROPERTY": "log10 MIC", "MEAS_VALUE": -1.30}

Challenge: Given C=C(O/N=C(\C(=O)NC1C(=O)N2C(C(=O)[O-])=C(CSc3cc[n+](CC(=O)O)cc3)CSC12)c1csc(N)n1)C(=O)O (stereo not shown) , report its log10 MIC on E. coli CSH2 (RK1).
Response given: -1.30

Challenge: Given CC(=O)Oc1ccc(C(O/N=C(\C(=O)NC2C(=O)N3C(C(=O)[O-])=C(CSc4cc[n+](CC(=O)O)cc4)CSC23)c2csc(N)n2)C(=O)O)cc1OC(C)=O (stereo not shown) , report its log10 MIC on E. coli CSH2 (RK1).
Response given: -1.30

* * *

System: Ps. aeruginosa AK 109
Assay: agar plate dilution method, MIC against Ps. aeruginosa AK 109
Assay type: cell-based
Settings: Pseudomonas aeruginosa, AK109; Ps. aeruginosa AK 109; 10^6 CFU/ml, 37° C., 16 hours; read-out: Minimum Inhibitory Concentration (MIC)
Listing of recorded MIC by entry.
Response body: numeric value in µg/mL, unit text excluded.

Known results for compounds:
{"COMPOUND": "Nc1nc(/C(=N/Oc2ccccc2)C(=O)NC2C(=O)N3C(C(=O)[O-])=C(CSc4cc[n+](CC(=O)O)cc4)CSC23)cs1 (stereo not shown) [Example 7]", "MIC, µg/mL": 25}
{"COMPOUND": "Nc1nc(C(=NOC(C(=O)O)c2ccc(O)c(O)c2)C(=O)NC2C(=O)N3C(C(=O)[O-])=C(CSc4cc[n+](CC(=O)O)cc4)CSC23)cs1 (stereo not shown) [Example 5]", "MIC, µg/mL": 0.78}
{"COMPOUND": "Nc1nc(/C(=N/OCc2ccccc2)C(=O)NC2C(=O)N3C(C(=O)[O-])=C(CSc4cc[n+](CC(=O)O)cc4)CSC23)cs1 (stereo not shown) [Example 2]", "MIC, µg/mL": 25}

Field: next compound
Challenge: Given CC(=O)Oc1ccc(C(O/N=C(\C(=O)NC2C(=O)N3C(C(=O)[O-])=C(CSc4cc[n+](CC(=O)O)cc4)CSC23)c2csc(N)n2)C(=O)O)cc1OC(C)=O (stereo not shown) [Example 6] , report its MIC on Ps. aeruginosa AK 109.
Response given: 0.78
